TESTED SYSTEM: Glucocorticoid receptor (Rattus norvegicus, UniProt P06536)
TEST PROTOCOL: Agonist activity at glucocorticoid receptor in rat INS-1 832/13 cells transfected with CCL2-promoter luciferase plasmid construct assessed as reduction in IL-1 beta induced inflammation by luciferase reporter gene assay
pIC50: −log10 of the molar value.
Lab note: compare pIC50 against 8. Equal or greater, write true (1). Smaller, write false (0).

CHEM SMILES	CLASS
C[C@]12Cc3cnn(-c4ccc(F)cc4)c3C=C1CCC[C@@H]2[C@H](O)C1CC1	false (0)
C[C@]12Cc3cnn(-c4ccc(F)cc4)c3C=C1CCC[C@@H]2CO	true (1)
C[C@]12Cc3cnn(-c4ccc(F)cc4)c3C=C1CCC[C@@H]2[C@@H](O)C1CCCC1	false (0)
C[C@]12Cc3cnn(-c4ccc(F)cc4)c3C=C1CCC[C@@H]2[C@H](O)c1c(F)c(F)c(F)c(F)c1F	false (0)
C[C@@H](O)[C@H]1CCCC2=Cc3c(cnn3-c3ccc(F)cc3)C[C@@]21C	true (1)

====

TESTED SYSTEM: Glucocorticoid receptor (Rattus norvegicus)
TEST PROTOCOL: Agonist activity at glucocorticoid receptor in rat INS-1 832/13 cells transfected with CCL2-promoter luciferase plasmid construct assessed as reduction in IL-1 beta induced inflammation by luciferase reporter gene assay
The entries below are paired with their reported log10 of IC50.
OUTCOME MEASURE: log10 of IC50 (log10 of the value in nM)

CHEM SMILES	TESTED SYSTEM	log10 of IC50
CC(C)[C@H](O)[C@H]1CCCC2=Cc3c(cnn3-c3ccc(F)cc3)C[C@@]21C	Glucocorticoid receptor (Rattus norvegicus)	-0.20
C[C@]12Cc3cnn(-c4ccc(F)cc4)c3C=C1CCC[C@@H]2[C@@H](O)C1CC1	Glucocorticoid receptor (Rattus norvegicus)	1.50
C[C@]12Cc3cnn(-c4ccc(F)cc4)c3C=C1CCC[C@@H]2[C@@H](O)c1c(F)c(F)c(F)c(F)c1F	Glucocorticoid receptor (Rattus norvegicus)	1.50
CC(C)[C@@H](O)[C@H]1CCCC2=Cc3c(cnn3-c3ccc(F)cc3)C[C@@]21C	Glucocorticoid receptor (Rattus norvegicus)	2.20
C[C@]12Cc3cnn(-c4ccc(F)cc4)c3C=C1CCC[C@@H]2[C@@H](O)c1ccccc1	Glucocorticoid receptor (Rattus norvegicus)	1.30
CC[C@H](O)[C@H]1CCCC2=Cc3c(cnn3-c3ccc(F)cc3)C[C@@]21C	Glucocorticoid receptor (Rattus norvegicus)	1.30
CC[C@@H](O)[C@H]1CCCC2=Cc3c(cnn3-c3ccc(F)cc3)C[C@@]21C	Glucocorticoid receptor (Rattus norvegicus)	1.20
C[C@]12Cc3cnn(-c4ccc(F)cc4)c3C=C1CCC[C@@H]2[C@H](O)c1ccccc1	Glucocorticoid receptor (Rattus norvegicus)	3.60
C[C@H](O)[C@H]1CCCC2=Cc3c(cnn3-c3ccc(F)cc3)C[C@@]21C	Glucocorticoid receptor (Rattus norvegicus)	1.80

====

TESTED SYSTEM: Glucocorticoid receptor (Rattus norvegicus, UniProt P06536)
Sequence (P06536 whole entry): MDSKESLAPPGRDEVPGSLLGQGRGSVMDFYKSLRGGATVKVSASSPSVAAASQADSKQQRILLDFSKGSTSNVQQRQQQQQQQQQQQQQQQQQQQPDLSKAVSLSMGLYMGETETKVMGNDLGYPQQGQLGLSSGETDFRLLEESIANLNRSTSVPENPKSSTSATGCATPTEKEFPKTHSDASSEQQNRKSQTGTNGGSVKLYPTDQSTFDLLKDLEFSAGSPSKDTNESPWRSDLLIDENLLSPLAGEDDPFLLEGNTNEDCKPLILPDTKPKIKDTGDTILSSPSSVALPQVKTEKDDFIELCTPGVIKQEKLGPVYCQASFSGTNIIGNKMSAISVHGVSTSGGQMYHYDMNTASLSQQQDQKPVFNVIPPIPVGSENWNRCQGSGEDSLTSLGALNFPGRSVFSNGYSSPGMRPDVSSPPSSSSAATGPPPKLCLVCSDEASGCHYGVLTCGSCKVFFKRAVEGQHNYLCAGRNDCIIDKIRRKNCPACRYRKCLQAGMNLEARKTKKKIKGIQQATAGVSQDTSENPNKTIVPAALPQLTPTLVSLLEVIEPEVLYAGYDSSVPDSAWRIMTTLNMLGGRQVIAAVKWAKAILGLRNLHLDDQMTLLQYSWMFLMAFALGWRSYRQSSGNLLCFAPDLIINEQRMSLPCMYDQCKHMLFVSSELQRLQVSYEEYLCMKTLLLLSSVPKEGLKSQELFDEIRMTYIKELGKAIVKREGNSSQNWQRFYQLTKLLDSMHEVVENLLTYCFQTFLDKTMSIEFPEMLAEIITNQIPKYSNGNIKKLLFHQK
TEST PROTOCOL: Agonist activity at glucocorticoid receptor in rat INS-1 832/13 cells transfected with 3XGRE-promoter luciferase plasmid construct assessed as induction of receptor transactivation by luciferase reporter gene assay
pEC50: −log10 of the molar value.
OUTCOME MEASURE: pEC50

CHEM SMILES	TESTED SYSTEM	RESULT NUMBER
C[C@@H](O)[C@H]1CCCC2=Cc3c(cnn3-c3ccc(F)cc3)C[C@@]21C	Glucocorticoid receptor (Rattus norvegicus, UniProt P06536)	7.50
CC(C)[C@H](O)[C@H]1CCCC2=Cc3c(cnn3-c3ccc(F)cc3)C[C@@]21C	Glucocorticoid receptor (Rattus norvegicus, UniProt P06536)	5.80
CC[C@H](O)[C@H]1CCCC2=Cc3c(cnn3-c3ccc(F)cc3)C[C@@]21C	Glucocorticoid receptor (Rattus norvegicus, UniProt P06536)	5.00
C[C@]12Cc3cnn(-c4ccc(F)cc4)c3C=C1CCC[C@@H]2[C@H](O)c1c(F)c(F)c(F)c(F)c1F	Glucocorticoid receptor (Rattus norvegicus, UniProt P06536)	5.70
C[C@H](O)[C@H]1CCCC2=Cc3c(cnn3-c3ccc(F)cc3)C[C@@]21C	Glucocorticoid receptor (Rattus norvegicus, UniProt P06536)	5.60
C[C@]12Cc3cnn(-c4ccc(F)cc4)c3C=C1CCC[C@@H]2[C@@H](O)C1CC1	Glucocorticoid receptor (Rattus norvegicus, UniProt P06536)	6.00
C[C@]12Cc3cnn(-c4ccc(F)cc4)c3C=C1CCC[C@@H]2[C@H](O)C1CC1	Glucocorticoid receptor (Rattus norvegicus, UniProt P06536)	9.30
C[C@]12Cc3cnn(-c4ccc(F)cc4)c3C=C1CCC[C@@H]2[C@@H](O)c1ccccc1	Glucocorticoid receptor (Rattus norvegicus, UniProt P06536)	7.20
C[C@]12Cc3cnn(-c4ccc(F)cc4)c3C=C1CCC[C@@H]2[C@@H](O)C1CCCC1	Glucocorticoid receptor (Rattus norvegicus, UniProt P06536)	5.50
CC(C)[C@@H](O)[C@H]1CCCC2=Cc3c(cnn3-c3ccc(F)cc3)C[C@@]21C	Glucocorticoid receptor (Rattus norvegicus, UniProt P06536)	5.80
CC[C@@H](O)[C@H]1CCCC2=Cc3c(cnn3-c3ccc(F)cc3)C[C@@]21C	Glucocorticoid receptor (Rattus norvegicus, UniProt P06536)	5.60
C[C@]12Cc3cnn(-c4ccc(F)cc4)c3C=C1CCC[C@@H]2CO	Glucocorticoid receptor (Rattus norvegicus, UniProt P06536)	7.50
C[C@]12Cc3cnn(-c4ccc(F)cc4)c3C=C1CCC[C@@H]2[C@H](O)c1ccccc1	Glucocorticoid receptor (Rattus norvegicus, UniProt P06536)	7.60
C[C@]12Cc3cnn(-c4ccc(F)cc4)c3C=C1CCC[C@@H]2[C@@H](O)c1c(F)c(F)c(F)c(F)c1F	Glucocorticoid receptor (Rattus norvegicus, UniProt P06536)	6.60
